- Tested on: SNB-75 CNS
- assay_overview: NCI tumour cell line growth inhibition, 48 h
Readings of TGI for the listed compounds

Clc1nc(Cl)c(Cl)c(-c2ccccc2)n1
21.5 µM
Cc1cccc(NC(=O)C(=O)C(C(=O)c2ccc3ccccc3c2)C2OC(=O)c3ccccc32)c1C (stereo not given)
42.9 µM
CCOC(=O)CNc1c(OCc2ccccc2)c(=O)c1=O
> 100 µM
CC1CC[C@]2(C(=O)O)CCC3(C)C(=CC(=O)C4[C@@]5(C)CCC(=O)C(C)(C)C5CC[C@]43C)[C@@H]2[C@H]1C (stereo not given in full)
> 100 µM
Cc1nc(N)sc1C(=O)/C=C\c1ccc2c(c1)OCO2
> 100 µM

Input: Identify the reported TGI for the following entry. c1cc(CNC23CC4CC(CC(C4)C2)C3)cc(C[N+](Cc2cccc(CNC34CC5CC(CC(C5)C3)C4)c2)(Cc2cccc(CNC34CC5CC(CC(C5)C3)C4)c2)Cc2cccc(CNC34CC5CC(CC(C5)C3)C4)c2)c1 (stereo not given)
Output: 40.7 µM

Input: Identify the reported TGI for the following entry. "CC(=O)OC(/C=C/c1ccccc1)=C(OC(C)C)/C1=C(\c2ccccc2)SCCCSC1=O"
Output: > 100 µM

Input: Identify the reported TGI for the following entry. "Cc1ccc(/C=C2\CCCc3ccccc3C2=O)cc1"
Output: > 100 µM

Input: Identify the reported TGI for the following entry. O=C1C2C3C=C4c5ccccc5N(c5ccccc5)C4(C2C(=O)N1Cc1ccccc1)C1C(=O)N(Cc2ccccc2)C(=O)C31 (stereo not given)
Output: > 100 µM

Input: Identify the reported TGI for the following entry. C=CCCN1CCc2c([nH]c3ccccc23)C1C(=O)O (stereo not given)
Output: > 100 µM

====

- System: CCRF-CEM leukemia
- assay_overview: NCI tumour cell line growth inhibition, 48 h
property_name: TGI

CCOC(=O)CC1(C(=O)OCC)c2[nH]c3ccccc3c2CCN1Cc1ccccc1 (configuration not stated)
> 100 µM
Nn1c(=O)n(Cc2ccccc2)n(-c2ccccc2)c1=O
> 100 µM
N#CC(NC12CC3CC(CC(C3)C1)C2)c1ccccc1C(F)(F)F (configuration not stated)
> 100 µM
Cc1cccc(NC(=O)/C(=N\NC(C)(C)C)C2NC(=S)NC2=O)c1C (configuration not stated)
> 100 µM
CN1c2ccc(Cl)cc2C(=O)NC1c1ccc([N+](=O)[O-])s1 (configuration not stated)
> 100 µM

Input: Please report the measured TGI for NCC1Nc2ccccc2[C@@H](O)C1O (some centres not stated) tested on CCRF-CEM leukemia.
Output: > 100 µM

====

- Test system: MCF7 breast
- assay_overview: NCI tumour cell line growth inhibition, 48 h
property_name: TGI (µM)
Just the number please, in µM, no unit attached.

NN/C(=N\S(=O)(=O)c1cc2ccccc2s1)Nc1ccc(Cl)cc1
42.4
N=C1C(c2nc3ccccc3s2)=C(O)CN1c1cc(C(F)(F)F)ccc1Cl
92.1
C=C1C(=O)O[C@H]2[C@H]1CC/C(COC(=O)C(=O)c1cn(Cc3ccccc3)c3ccccc13)=C\CC[C@@]1(C)O[C@@H]21
3.06

Consider now this further compound.
Input: Identify the reported TGI for the following entry. Cc1ccc([N+](=O)[O-])cc1S(=O)(=O)Nc1ccc(C2=NNC(c3ccccc3)C2)cc1 (stereo not drawn)
Output: 43.7

====

- System: OVCAR-5 ovarian
- assay_overview: NCI tumour cell line growth inhibition, 48 h
Readings of TGI for the listed molecules

Reference set (3 entries):
O=c1cc(-c2ccc(F)cc2)[nH]c2ncc(Cl)cc12
> 100 µM
O=C(N/N=C/c1ccccc1)c1c(-c2cccnc2)cnc2ccccc12
> 100 µM
COc1nc2ccccc2cc1-c1nc2c(cnn2-c2ccc(Br)cc2)c(=O)[nH]1
> 50 µM

Consider now this further molecule.
Input: Identify the reported TGI for the following entry. "CCCCCCCC/C=C/CCCCCCCC(=O)OC[C@H]1O[C@@H](n2ccc(N)nc2=O)C(F)(F)[C@@H]1O"
Output: > 100 µM

====

Readings of TGI for the listed molecules
- Test system: SK-OV-3 ovarian
- assay_overview: NCI tumour cell line growth inhibition, 48 h

Reference set (3 entries):
CCN(CC)C(=S)N/N=C(/C)c1cccc(/C(C)=N\NC(=S)N(CC)CC)n1
5.43 µM
Nc1cc2[nH]c(=O)c(=O)[nH]c2cc1N
> 100 µM
COc1cc(/C=C2\C(=O)N(c3ccccc3)C(c3ccccc3)S2(=O)=O)cc(OC)c1OC (centres undefined)
> 100 µM

Consider now this further molecule.
Input: Identify the reported TGI for the following entry. CCCCN1C(=O)N(c2ccc(OCC)cc2)C2N(CCCC)C1C(C)(C)C2(C)C (centres undefined)
Output: 57 µM

====

- System: HOP-92 NSCLC
- assay_overview: NCI tumour cell line growth inhibition, 48 h
property_name: TGI

Reference set (6 entries):
COc1ccccc1CNCCCN1C(=O)c2ccc3c4c(ccc(c24)C1=O)C(=O)N(CCCOCCCCOCCCN)C3=O
4.61 µM
CCOC(=O)/C=C(/C(=O)OCC)n1ccc(=O)n(Cc2cn(COCCOC(C)=O)nn2)c1=O
5.04 µM
COC1(OC)C2(Cl)C(Cl)=C(Cl)C1(Cl)C1C=CC=CC12 (configuration not stated)
> 100 µM
Oc1cccnc1CN1CCCCC1
> 100 µM
CC(C)[Si](OC1=C(C(=O)N(C)c2cccc(Cl)c2)CCCC1)(C(C)C)C(C)C
25.4 µM
COc1cc(C=C2C(=O)NC(=O)NC2=O)cc(OC)c1OC
> 100 µM

Consider now this further compound.
Input: Identify the reported TGI for the following entry. CC1CC[C@]2(C(=O)O)CCC3(C)C(=CC(=O)C4[C@@]5(C)CCC(=O)C(C)(C)C5CC[C@]43C)[C@@H]2[C@H]1C (some centres not stated)
Output: 73.2 µM

====

- System: HCT-15 colon
- assay_overview: NCI tumour cell line growth inhibition, 48 h
Readings of TGI for the listed compounds

Reference set (5 entries):
Cn1c(=O)c(C(c2ccc([N+](=O)[O-])cc2)c2c(O)c3ccccc3n(C)c2=O)cc2ccccc21 (configuration not stated)
> 100 µM
Cn1c2c(c3ccccc31)CC1c3c(c4ccccc4n3C)CC21 (configuration not stated)
> 100 µM
NP(=O)(Oc1c2occc2cc2ccc(=O)oc12)N(CCCl)CCCl (configuration not stated)
> 100 µM
COc1ccc(/C=C/c2ccnc3ccccc23)c(OC)c1
> 10 µM
CCOC(=O)c1nc2ccc(C(F)(F)F)cc2nc1NCc1cc(OC)c(OC)c(OC)c1
> 100 µM

Input: Identify the reported TGI for the following entry. "Clc1nc(Cl)c(Cl)c(-c2ccccc2)n1"
Output: > 100 µM

Input: Identify the reported TGI for the following entry. COc1cc(/C=C2\C(=O)N(c3ccccc3)C(c3ccccc3)S2(=O)=O)cc(OC)c1OC (configuration not stated)
Output: > 100 µM

Input: Identify the reported TGI for the following entry. CC1(C)NC2C(=O)c3c([nH]c4ccccc34)[C@]3(C)CCC1CC23 (some centres not stated)
Output: > 100 µM

Input: Identify the reported TGI for the following entry. "COc1ccccc1/C=C1\SC(=S)N(/C=C2\C(=O)Oc3ccccc3C2=O)C1=O"
Output: > 100 µM

Input: Identify the reported TGI for the following entry. O=C1CSC(c2cccc(Oc3ccccc3)c2)N1c1ccc(Cl)cc1 (configuration not stated)
Output: > 100 µM

Input: Identify the reported TGI for the following entry. "NC(N)=N/N=C/c1c[nH]c2ccccc12"
Output: > 100 µM

Input: Identify the reported TGI for the following entry. "Cc1ccc(C2=C(c3ccccc3)C(Br)(c3ccc(C)cc3)C(c3ccccc3)=C2c2ccc(C)cc2)cc1"
Output: > 100 µM

====

Readings of TGI for the listed compounds
- Test system: PC-3 prostate
- assay_overview: NCI tumour cell line growth inhibition, 48 h

CC(=O)CSCc1ccccn1
> 100 µM
Oc1c(CN2CCOCC2)ccc2cccnc12
> 10 µM
CC(=O)/C(C)=N/NC(=O)c1ccccc1O
> 100 µM
CC12C(=O)CC(CC1=O)C2(C)C
> 100 µM
O=C(c1ccc(N=Cc2ccccc2O)cc1)c1ccc(N=Cc2ccccc2O)cc1
> 100 µM

Consider now this further compound.
Input: Identify the reported TGI for the following entry. "COC(=O)C1=CNC=C(C(=O)OC)C1C1=CC(=O)C(C)=CC1=O"
Output: 30.5 µM

====

- Tested on: NCI-H522 lung
- assay_overview: NCI tumour cell line growth inhibition, 48 h
Readings of TGI for the listed compounds

Input: Identify the reported TGI for the following entry. CC1=NNC(N)=N/C1=C\C(Sc1ccc(Cl)cc1)c1ccc([N+](=O)[O-])cc1 (centres undefined)
Output: > 100 µM

Input: Identify the reported TGI for the following entry. "O=Cc1ccc(OCc2cccc(COc3ccc(/C=N\Nc4ccc([N+](=O)[O-])cc4[N+](=O)[O-])cc3)n2)cc1"
Output: > 100 µM

Input: Identify the reported TGI for the following entry. "c1ccc2c(c1)ccn2CCc1c[nH]c2ccccc12"
Output: > 10 µM

Input: Identify the reported TGI for the following entry. COc1cc(C2C(Cl)C(=O)N2NC(=O)c2ccc(NC(C)=O)cc2)cc(OC)c1OC (centres undefined)
Output: > 100 µM
